B1: ZNF263 (parent)
chain: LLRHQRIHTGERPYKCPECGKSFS

Variants of: B1
assay.method.text: protein stability index of a GFP-peptide fusion (GPS, HEK-293T) (PSI 1-6); higher = more stable;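 also: lentivirally expressed fusions sorted by FACS into six bins by GFP to DsRed ratio, PSI derived from sequencing read proportions per bin multiplied by bin number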
condition: c terminus: a fixed tail appended
Please use true whenever protein stability index is not below 2, and false whenever it is.

hey, is protein stability index for this one >= 2? K21F
false

Decide: is the reported value of protein stability index for Y14N equal to or greater than 2?
true

Determine whether this variant has protein stability index no lower than 2: F23W
false

Could you verify whether the entry I7P shows protein stability index of no less than 2?
true

Kindly determine if protein stability index recorded for C19S is above or exactly 2.
true

In plain terms: is recorded protein stability index at least 2 for Q5N ?
true

Form field: protein stability index at least 2? Entry: Y14I
true

Is it the case that I7Q has protein stability index reaching or exceeding 2?
true

Is it the case that C16M has protein stability index reaching or exceeding 2?
true

Determine whether measured protein stability index meets or exceeds 2 for L2V
true

hey, is protein stability index for this one >= 2? C16H
true

Textbook exercise: given the entry P17Q , state whether its protein stability index is greater than or equal to 2.
true

Confirm if protein stability index reported for the variant C16P is 2 or above.
true

State whether the measured protein stability index reaches 2, counting equality as reaching it, for H8E
true

Decide: is the reported value of protein stability index for I7T equal to or greater than 2?
true

Decide: protein stability index of G20R >= 2?
false

Reference source: the supplement of paper PMC10567573
